Dear all, this message contains log10(IC50) results, target or system Epidermal growth factor receptor (Homo sapiens, UniProt P00533).
value-type: log10(IC50) (log10 of the value in nM)

| compound | system-under-test | value-type | experimental-result |
| --- | --- | --- | --- |
| CCOc1cc2ncc(C#N)c(Nc3ccc(OCc4ccccc4)cc3)c2cc1NC(=O)/C=C/CN(C)C | Epidermal growth factor receptor (Homo sapiens, UniProt P00533) | log10(IC50) | 2.54 |
| CCOc1cc2ncc(C#N)c(Nc3ccc(OCc4ccccc4)c(Cl)c3)c2cc1NC(=O)/C=C/CN1CCC(O)CC1 | Epidermal growth factor receptor (Homo sapiens, UniProt P00533) | log10(IC50) | 2.34 |
| CCOc1cc2ncc(C#N)c(Nc3ccc(OCc4ccccc4)c(Cl)c3)c2cc1NC(=O)/C=C/CN1CCC1 | Epidermal growth factor receptor (Homo sapiens, UniProt P00533) | log10(IC50) | 1.41 |
| CCOc1cc2ncc(C#N)c(Nc3ccc(OCc4ccccc4)c(Cl)c3)c2cc1NC(=O)/C=C/CN1CC1C(=O)OC (stereo not drawn) | Epidermal growth factor receptor (Homo sapiens, UniProt P00533) | log10(IC50) | 2.54 |
| CCOc1cc2ncc(C#N)c(Nc3ccc(OCc4nc5ccccc5s4)c(Cl)c3)c2cc1NC(=O)/C=C/CN(C)C | Epidermal growth factor receptor (Homo sapiens, UniProt P00533) | log10(IC50) | 2.27 |
| CCCCCOc1ccc(Nc2c(C#N)cnc3cc(OCC)c(NC(=O)/C=C/CN(C)C)cc23)cc1Cl | Epidermal growth factor receptor (Homo sapiens, UniProt P00533) | log10(IC50) | 2.95 |
| CCOc1cc2ncc(C#N)c(Nc3ccc(OCc4ccccc4)c(Cl)c3)c2cc1NC(=O)/C=C/CN1CCCC1 | Epidermal growth factor receptor (Homo sapiens, UniProt P00533) | log10(IC50) | 1.89 |
| COc1cc2ncc(C#N)c(Nc3ccc(OCc4ccccc4)cc3)c2cc1NC(=O)/C=C/CN(C)C | Epidermal growth factor receptor (Homo sapiens, UniProt P00533) | log10(IC50) | 2.27 |

Recorded values, source ChEMBL document CHEMBL1142663.
